- System: HeLa
- experimental details: cells
- Type: functional, cell-based
- experimental setup: Homo sapiens, 24 h
- Description: Cytotoxicity against human HeLa cells assessed as inhibition of cell viability after 24 hrs by MTT assay
pIC50: −log10 of the molar value.
Quick reference for pIC50 among some compounds
assay metric: pIC50

>>> measured_number("CO/N=C1\\C[C@@H](c2ccccc2)N[C@@H](c2ccccc2)[C@@H]1C(C)C")
4.31
>>> measured_number("CO/N=C1/[C@@H](C)[C@H](c2ccc(C(C)C)cc2)N[C@H](c2ccc(C(C)C)cc2)[C@H]1C")
4.29
>>> measured_number("CO/N=C1\\C[C@@H](c2ccc(Cl)cc2)N[C@@H](c2ccc(Cl)cc2)[C@@H]1C (relative stereo)")
4.31
>>> measured_number("CO/N=C1\\C[C@@H](c2ccc(F)cc2)N[C@@H](c2ccc(F)cc2)[C@@H]1C")
4.31
